The measured values listed here are drawn from ChEMBL document CHEMBL3868613.

# methodDescription: Half life in Sprague-Dawley rat at 10 mg/kg, administered through oral gavage by LC/MS analysis
# Format: ADME, organism-based
# setupConditions: in vivo
measuredParameter: half-life (h)
The reply should be a number in h, with the unit left off.

The molecule identified as Cc1cn2nc(C)c(C(=O)NCc3ccc(N4CCC(c5ccc(OC(F)(F)F)cc5)CC4)cc3)c2s1 registered its half-life at 13.4

====

# methodDescription: Cmax in Sprague-Dawley rat at 10 mg/kg, administered through oral gavage by LC/MS analysis
# Type: ADME, organism-based
# Set-up: dose 10 mg/kg, route oral
# setupConditions: in vivo
measuredParameter: Cmax

The compound identified as Cc1cn2nc(C)c(C(=O)NCc3ccc(N4CCC(c5ccc(OC(F)(F)F)cc5)CC4)cc3)c2s1 registered its Cmax at 373 ng/mL
